Cited source for all entries: patent US20070167353A1

Please consider the recorded hPepT1/Control for human dipeptide transporter, hPept1 (Homo sapiens) in what follows.

Please review the entries below; each comes with its answer.
Nc1ncnc2c1ncn2[C@@H]1O[C@H](COC(=O)[C@@H]2CCCN2)[C@@H](O)[C@@H]1O [5′-O-L-prolyl Ara A]
1.06
CC(C)[C@H](N)C(=O)OC[C@H]1O[C@@H](n2cnc3c(N)ncnc32)[C@@H](O)[C@@H]1O [5′-O-L-valyl Ara A]
20.7

Please state, for each entry, its recorded hPepT1/Control.
1. C[C@H](N)C(=O)NCC(=O)OC[C@H]1O[C@@H](n2cnc3c(N)ncnc32)[C@@H](O)[C@@H]1O [5′-O-L-alagly Ara A]
2. CC[C@H](C)[C@H](N)C(=O)OC[C@H]1O[C@@H](n2cnc3c(N)ncnc32)[C@@H](O)[C@@H]1O [5′-O-L-isoleucyl Ara A]
3. Nc1ncnc2c1ncn2[C@@H]1O[C@H](COC(=O)[C@@H](N)CC(=O)O)[C@@H](O)[C@@H]1O [5′-O-L-aspartyl Ara A]

Solution:
1.48
26.9
1.27
